Tested on: S. pneumoniae DSM20566
method summary: Minimal bactericidal concentration
Assay type: cell-based
test settings: viability reduced by ≥99.9%
Please provide measured Bactericidal concentration for the entries that follow.

Entry O=C(CCc1ccccc1)C[C@@H]1C[C@@H](c2ccccc2)c2c(cc(/C=C/c3ccccc3)oc2=O)O1 — recorded Bactericidal concentration = > 50 µM

Quick note, Bactericidal concentration for CC(=O)N[C@H]1[C@H]([C@H](O)[C@H](O)CO)OC(C(=O)O)=C[C@@H]1N=C(N)N landed at > 50 µM

CCC(CC)O[C@@H]1C=C(C(=O)O)C[C@H](N)[C@H]1NC(C)=O [oseltamivir, Oseltamivir carboxylate] has a reported Bactericidal concentration of > 50 µM

COc1cc2oc(-c3ccc(O)cc3O)c(CC=C(C)C)c(=O)c2c(O)c1/C=C/C(C)C has a reported Bactericidal concentration of 3.13 ± 0.00 µM

In plain terms, CO[C@H]1/C=C/O[C@@]2(C)Oc3c(C)c(O)c4c(O)c(c(/C=N/N5CCN(C)CC5)c(O)c4c3C2=O)NC(=O)/C(C)=C\C=C\[C@H](C)[C@H](O)[C@@H](C)[C@@H](O)[C@@H](C)[C@H](OC(C)=O)[C@@H]1C has a documented Bactericidal concentration of 1.97 ± 1.23 µM

Bactericidal concentration for CC(=O)N[C@H]1[C@H]([C@H](O)[C@H](O)CO)OC(C(=O)O)=C[C@@H]1O is > 50 µM

----------
System: S. pneumoniae BC7326
method summary: Minimal bactericidal concentration
Type: cell-based
test settings: viability reduced by ≥99.9%
Provide the recorded Bactericidal concentration for the entries that follow.

The molecule listed as O=C(CCc1ccccc1)C[C@@H]1C[C@@H](c2ccccc2)c2c(cc(/C=C/c3ccccc3)oc2=O)O1 has a reported Bactericidal concentration of > 50 µM

The molecule CC(=O)N[C@H]1[C@H]([C@H](O)[C@H](O)CO)OC(C(=O)O)=C[C@@H]1N=C(N)N showed Bactericidal concentration equal to > 50 µM

Recorded result, COc1cc2oc(-c3ccc(O)cc3O)c(CC=C(C)C)c(=O)c2c(O)c1/C=C/C(C)C , Bactericidal concentration: 3.32 ± 1.94 µM

Memo: CCC(CC)O[C@@H]1C=C(C(=O)O)C[C@H](N)[C@H]1NC(C)=O [oseltamivir, Oseltamivir carboxylate] , reported Bactericidal concentration: > 50 µM

// CC(=O)N[C@H]1[C@H]([C@H](O)[C@H](O)CO)OC(C(=O)O)=C[C@@H]1O : Bactericidal concentration value = > 50 µM

The value of Bactericidal concentration measured for the molecule CO[C@H]1/C=C/O[C@@]2(C)Oc3c(C)c(O)c4c(O)c(c(/C=N/N5CCN(C)CC5)c(O)c4c3C2=O)NC(=O)/C(C)=C\C=C\[C@H](C)[C@H](O)[C@@H](C)[C@@H](O)[C@@H](C)[C@H](OC(C)=O)[C@@H]1C turned out to be 0.08 ± 0.03 µM

----------
Entries with their measured MIC, system S. pneumoniae BC7326:

Briefly, MIC measured for CC(=O)N[C@H]1[C@H]([C@H](O)[C@H](O)CO)OC(C(=O)O)=C[C@@H]1N=C(N)N : > 50 µM

What the record says about O=C(CCc1ccccc1)C[C@@H]1C[C@@H](c2ccccc2)c2c(cc(/C=C/c3ccccc3)oc2=O)O1 : MIC is > 50 µM

For record CO[C@H]1/C=C/O[C@@]2(C)Oc3c(C)c(O)c4c(O)c(c(/C=N/N5CCN(C)CC5)c(O)c4c3C2=O)NC(=O)/C(C)=C\C=C\[C@H](C)[C@H](O)[C@@H](C)[C@@H](O)[C@@H](C)[C@H](OC(C)=O)[C@@H]1C the listed MIC is 0.016 µM

Briefly, MIC measured for COc1cc2oc(-c3ccc(O)cc3O)c(CC=C(C)C)c(=O)c2c(O)c1/C=C/C(C)C : 1.12 µM
